The values you see were collected from ChEMBL document CHEMBL1201862.

- System: SK-MEL-5
- Protocol: NCI tumour cell line growth inhibition, 48 h
Active and inactive are the calls of the source. No stated cut-off is given here; in the data, active = GI50 up to about 1.1 µM and inactive = higher.
Returns: one label drawn from true = active, false = inactive

The examples below pair each entry with its known result.
CCc1cccc(C(C)CC)c1NC(=O)CC1C(=O)Nc2ccccc2[S+]1[O-] (centres undefined) ... false
CC(C)c1nc(Cl)nc(Cl)c1Cl ... true
COC(=O)CNC(=O)CCC(C)[C@H]1CCC2C3C(C[C@H](OC(C)=O)[C@@]21C)[C@@]1(C)CCC2(C[C@H]1C[C@H]3OC(C)=O)OOC1(CC[C@]3(C)C4C[C@H](OC(C)=O)[C@@]5(C)C(CC[C@@H]5C(C)CCC(=O)NCC(=O)OC)C4[C@H](OC(C)=O)C[C@@H]3C1)OO2 (some centres undefined) ... true

Please examine the following record next.
Entry CCc1ccccc1NC(=O)C1=C(C)NC(C)=C(C(=O)Nc2ccccc2CC)C1c1ccc2c(c1)OCO2 : call = ? false

###

- System: CCRF-CEM
- Protocol: NCI tumour cell line growth inhibition, 48 h
The source made the active and inactive calls. Rule as the data show it: active = GI50 up to about 1.1 µM and inactive = higher.
Returns: one label drawn from true for active, false for inactive

CN(CCNC(=S)c1cn(C)c2c1ccc1ccccc12)CCNC(=S)c1cn(C)c2c1ccc1ccccc12 ... false

Entry C/C(=C1/N=C(c2cc([N+](=O)[O-])ccc2Cl)N(c2ccc(Br)cc2)C1=O)c1cc2ccccc2oc1=O : call = ? false

Now consider Cc1ccc(C2NC(=O)c3ccccc3N2)c(C)c1 (configuration not stated) and answer again. false

Now consider Cc1nc2c(nc1C)-c1[nH]c3c(c1C(=O)C2=O)CCCC3=O and answer again. false

Now consider O=C1C(Br)=CC2(C=C1Br)CCNC1=C2C(=O)c2[nH]cnc2C1=O and answer again. false

Now consider C/C(=N\NC(=S)N1CCN(c2ccccn2)CC1)c1ccccn1 and answer again. true

###

- Tested on: NCI-H226
- Protocol: NCI tumour cell line growth inhibition, 48 h
Activity calls are given as the source filed them. Rule as the data show it: active = GI50 up to about 1.1 µM and inactive = higher.
Returns: one label drawn from TRUE (active), FALSE (inactive)

Cc1ccc(S(N)(C(=O)Nc2cccc3ccccc23)[N+](=O)[O-])cc1 (stereo not drawn) ... FALSE
CC(=O)O[C@H]1C(=O)[C@@]2(C)[C@H]([C@H](OC(=O)c3ccccc3)[C@]3(O)C[C@H](OC(=O)[C@H](O)[C@@H](NC(=O)CC(C)C)c4ccccc4)C(C)=C1C3(C)C)[C@]1(OC(C)=O)CO[C@@H]1C[C@@H]2O ... TRUE

Please examine the following record next.
Entry CCOC(=O)c1c(N2CCCC2)[nH]c(=O)c(C(c2ccco2)c2c(O)c(C(=O)OCC)c(N3CCCC3)[nH]c2=O)c1O : call = ? FALSE

###

- Tested on: SF-268
- Protocol: NCI tumour cell line growth inhibition, 48 h
The source made the active and inactive calls. Rule as the data show it: active = GI50 up to about 1.1 µM and inactive = higher.
Provide the recorded GI50 for the entries that follow.

Example entries begin here.
CC(C)=CCc1c(O)cc2oc(-c3ccc(O)cc3O)cc(=O)c2c1O ... 38.8 µM (inactive)
COc1c2c(cc3c1C(=O)Cc1ccc4c(c1CN(C)CC3)OCO4)OCO2 ... > 100 µM (inactive)
Nc1c(C(=O)c2ccc(Cl)c(Cl)c2)[nH]c(NCc2ccccc2)c1C(=S)Nc1ccccc1 ... 14.1 µM (inactive)
O=C(ON=C1c2ccccc2C(Br)C(Br)c2ccccc21)c1ccccc1 (stereo not drawn) ... 20.7 µM (inactive)
CCC(O)CC1OC2(CCC1C)CC1OC(=O)/C=C\C(C)(O)C(O)C(C)C(O)C(OC3CC(OC)C(O)C(C)O3)C(O)C(C)(O)CCC/C=C/C3CC(C)COC3(O)CC(O2)C1C (stereo not drawn) ... 17.8 µM (inactive)
CCOc1nc2sc3c(c2c(=O)n1CCSSCCn1c(OCC)nc2sc4c(c2c1=O)CCCC4)CCCC3 ... > 100 µM (inactive)

Could you tell me GI50 for each of these compounds? They are listed below.
1. COc1ccc(C(=O)C(C(=O)CCC(=O)Nc2ccc(Cl)c(Cl)c2)c2ccc(OC)cc2)cc1 (stereo not drawn)
2. COC(=O)NC(=O)c1cn(CCCOC(=O)CCCCCCCCC(=O)OCCCn2cc(C(=O)NC(=O)OC)c(=O)[nH]c2=O)c(=O)[nH]c1=O

> 100 µM (inactive)
31.3 µM (inactive)

###

- Tested on: MDA-N
- Protocol: NCI tumour cell line growth inhibition, 48 h
Calls of active or inactive are those of the source. No stated cut-off is given here; in the data, active = GI50 up to about 1.1 µM and inactive = higher.
Provide the recorded GI50 for the entries that follow.

Example entries begin here.
CCOC(=O)CNC(=O)C(CSC(=O)N(O)c1ccc(Br)cc1)NC(=O)CCC(N)C(=O)OCC (stereo unspecified) ... > 50 µM (inactive)
N=C(N)NCCN1CC2CCC(CC2)C1 ... 51.9 µM (inactive)
NCc1ccc(O)c(O)c1O ... > 10 µM (inactive)
CCC(=O)O[C@H]1CC[C@H]2[C@@H]3CCC4=C/C(=N/OC(=O)c5cccc6c(=O)c7ccccc7[nH]c56)CC[C@]4(C)[C@H]3CC[C@]12C ... 35 µM (inactive)
C=CC(c1ccccc1)[C@@]1(OC(C)=O)C(=O)C(=O)OC1C1COC(C)(C)O1 (stereo partly specified) ... 10.4 µM (inactive)

Could you tell me GI50 for each of these compounds? They are listed below.
1. CCCNc1[nH]c(C(=O)c2ccccc2)c(N)c1C(=S)Nc1ccccc1
2. NP(=O)(Oc1c2occc2cc2ccc(=O)oc12)N(CCCl)CCCl (stereo unspecified)
3. O=C(Cc1ccc(OCc2cccc(Cl)c2)cc1)NO
4. c1ccc(/N=C2\SC3=NCCN3\C2=N/c2ccccc2)cc1
5. Nc1nc(O)c2ncn(C3C=CC(CO)C3)c2n1 (stereo unspecified)
6. Cc1nc(-c2cc3ccccc3oc2=O)cs1
7. CC1=NN(c2ccccc2)C(=O)C1/N=N/c1ccc([As](=O)(O)O)c(O)c1 (stereo unspecified)
8. Cc1ccc(S(N)(C(=O)Nc2cccc3ccccc23)[N+](=O)[O-])cc1 (stereo unspecified)

> 100 µM (inactive)
> 100 µM (inactive)
58.9 µM (inactive)
15.7 µM (inactive)
> 100 µM (inactive)
> 100 µM (inactive)
> 100 µM (inactive)
> 100 µM (inactive)

Could you tell me GI50 for each of these compounds? They are listed below.
1. Cc1nn(C(=O)c2ccccc2O)c2c1C(c1ccc(O)cc1O)SC(=N)N2 (stereo unspecified)
2. O=C(N/N=C\c1ccc([N+](=O)[O-])cc1)Nc1cccc2ccccc12
3. O=[N+]([O-])C(=C/c1ccccc1)/C(=C\c1ccccc1)[N+](=O)[O-]
4. CCOc1nc2sc3c(c2c(=O)n1CCSSCCn1c(OCC)nc2sc4c(c2c1=O)CCCC4)CCCC3
5. COc1ccc(C(OC(C)=O)C2C(=C(C#N)C#N)c3ccccc3C2=C(C#N)C#N)cc1 (stereo unspecified)
6. COc1ccc(-c2nc3ncccn3c2-c2ccc([S+](C)[O-])cc2)cc1 (stereo unspecified)
7. Cc1ccc(S(=O)(=O)Oc2cc(S(=O)(=O)O)cc3cc(S(=O)(=O)O)cc(N)c23)cc1

["5.78 µM (inactive)", "> 100 µM (inactive)", "17.1 µM (inactive)", "> 100 µM (inactive)", "42.1 µM (inactive)", "36.9 µM (inactive)", "> 100 µM (inactive)"]

Given Cc1ccc(S(=O)(=O)N2CC(CCN)c3ccccc32)cc1 (stereo unspecified) , state its recorded GI50. 0.883 µM (active)

###

Provide the recorded GI50 for the entries that follow.
- Test system: OVCAR-8
- Protocol: NCI tumour cell line growth inhibition, 48 h
Activity calls are given as the source filed them. No stated cut-off is given here; in the data, active = GI50 up to about 1.1 µM and inactive = higher.

Example entries begin here.
COc1ccc(-c2nc3ncccn3c2-c2ccc([S+](C)[O-])cc2)cc1 (stereo not given) ... > 100 µM (inactive)
Cc1ccc(S(=O)(=O)Oc2cc(S(=O)(=O)O)cc3cc(S(=O)(=O)O)cc(N)c23)cc1 ... > 100 µM (inactive)
CCc1cc2c(c3[nH]ccc13)[C@@H](C)C[C@H]2C ... 19.7 µM (inactive)
CC1=Nn2c(nc3sc4c(c3c2=O)CCCC4)SC1 ... > 100 µM (inactive)
Nc1c(C(=O)c2ccc(Cl)c(Cl)c2)[nH]c(NCc2ccccc2)c1C(=S)Nc1ccccc1 ... 14.7 µM (inactive)
CC/C(Cl)=N\OC(=O)Nc1ccc(F)c([N+](=O)[O-])c1 ... 16.6 µM (inactive)
CSc1ccc2c(cc1=O)C(NC(=O)c1ccc(OC(C)=O)cc1)CCc1cc(O)c(O)c(O)c1-2 (stereo not given) ... 25.1 µM (inactive)
Nc1nc(O)c2ncn(C3C=CC(CO)C3)c2n1 (stereo not given) ... > 100 µM (inactive)
Cc1ccc(/C(O)=C/c2nc3ccccc3oc2=O)cc1 ... 38.4 µM (inactive)

Given COC(=O)C(=O)CC(=O)CCn1ncc(Cl)c(Cl)c1=O , state its recorded GI50. 13.3 µM (inactive)
